- protocol-summary: DRUGMATRIX: Phorbol Ester radioligand binding (ligand: [3H] PDBu)
- Type: cell membranes, Mus musculus, ICR, Brain, Membrane
- condition-notes: Not Active = under 50% inhibition at 10 µM
measure-name: IC50

Use these answered entries as a reference point.
| compound | measure-name | reported-result |
| --- | --- | --- |
| O=c1c(-c2ccc(O)cc2)coc2cc(O)cc(O)c12 | IC50 | Not Active |
| C[C@]12C=CC(=O)C=C1CC[C@H]1[C@@H]3C[C@@H](O)[C@](O)(C(=O)CO)[C@@]3(C)C[C@H](O)[C@@]12F | IC50 | Not Active |
| COc1ccnc(C[S+]([O-])c2nc3ccc(OC(F)F)cc3[nH]2)c1OC (stereo unspecified) | IC50 | Not Active |
| O=C(c1ccccc1F)N1CCC(Cc2ccccc2)CC1 | IC50 | Not Active |
| CC(O)(P(=O)(O)O)P(=O)(O)O | IC50 | Not Active |

Query block: Please look up its IC50: CC[C@]1(O)C[C@@H]2CN(CCc3c([nH]c4ccccc34)[C@@](C(=O)OC)(c3cc4c(cc3OC)N(C)[C@H]3[C@@](O)(C(N)=O)[C@H](O)[C@]5(CC)C=CCN6CC[C@]43[C@@H]65)C2)C1
Result block: Not Active

Query block: GET /values?readout=IC50&item= CN1CCN(CCCN2c3ccccc3Sc3ccc(C(F)(F)F)cc32)CC1
Result block: Not Active

Query block: Query: IC50; subject: NC(=O)c1cccc(N)c1 [3-AMINOBENZAMIDE]
Result block: Not Active

Query block: State the recorded IC50 for this entry: CC(=O)OCC(COC(C)=O)OC(C)=O
Result block: Not Active

Query block: Reported IC50 for CCn1cc(C(=O)O)c(=O)c2cc(F)c(N3CCNC(C)C3)c(F)c21 (stereo unspecified) : what is it?
Result block: Not Active

====

- protocol-summary: DRUGMATRIX: Calcium Channel Type L, Phenylalkylamine radioligand binding (ligand: [3H] (-)-Desmethoxyverapamil (D-888))
- Type: cell membranes, Rattus norvegicus, Wistar, Brain, Membrane
- condition-notes: Not Active = under 50% inhibition at 10 µM
measure-name: Ki

| compound | Ki |
| --- | --- |
| CCc1ccc(CCOc2ccc(CC3SC(=O)NC3=O)cc2)nc1 (configuration not stated) [PIOGLITAZONE] | Not Active |
| CCOC(=O)c1ncn2c1CN(C)C(=O)c1cc(F)ccc1-2 [FLUMAZENIL] | Not Active |
| CC(C)c1c(C(=O)Nc2ccccc2)c(-c2ccccc2)c(-c2ccc(F)cc2)n1CC[C@@H](O)C[C@@H](O)CC(=O)O [ATORVASTATIN] | Not Active |
| CC1=NN(c2ccccc2)C(=O)C1 [EDARAVONE] | Not Active |
| O=C(O)c1cc(-c2ccc(F)cc2F)ccc1O [DIFLUNISAL] | Not Active |
| O=C(O)P(=O)(O)O [FOSCARNET] | Not Active |
| COc1cc(OC)c(C(=O)CCCN2CCCC2)c(OC)c1 [BUFLOMEDIL] | Not Active |
| O=C(O)CCCCC1CCSS1 (stereo not drawn) [LIPOIC ACID, ALPHA] | Not Active |

Query block: Ki lookup needed for C[C@]12C=CC(=O)C=C1CC[C@H]1[C@@H]3C[C@@H](O)[C@](O)(C(=O)CO)[C@@]3(C)C[C@H](O)[C@@]12F [TRIAMCINOLONE] , thanks.
Result block: Not Active

Query block: Quick one: Ki of CCCCC(=O)N(Cc1ccc(-c2ccccc2-c2nnn[nH]2)cc1)[C@H](C(=O)O)C(C)C ?
Result block: Not Active

Query block: // returns reported Ki for input CC(C)(C(=O)O)c1ccc(C(O)CCCN2CCC(C(O)(c3ccccc3)c3ccccc3)CC2)cc1 (configuration not stated) [FEXOFENADINE]
Result block: Not Active
